B1: ZNF263 (parent)
chain: HLTRHQRTHTGEKPYKCTLCGENF

variants of: B1; test: protein stability index of a GFP-peptide fusion (GPS, HEK-293T) (PSI 1-6); higher = more stable; details: c terminus: a fixed tail appended;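 further: lentivirally expressed fusions sorted by FACS into six bins by GFP to DsRed ratio, PSI derived from sequencing read proportions per bin multiplied by bin number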

{"columns": ["Variant label", "protein stability index"],
 "data": [
  ["H1Y", 2.23],
  ["L2Y", 3.3],
  ["L19K", 3.7],
  ["K16P", 3.32],
  ["H5M", 2.28],
  ["Y15W", 2.46],
  ["G21M", 3.06],
  ["N23R", 3.08],
  ["Y15Q", 3.44],
  ["L19P", 2.7],
  ["K13H", 2.9],
  ["K16V", 2.3],
  ["Y15I", 2.85],
  ["R4I", 2.61],
  ["C20E", 4.11],
  ["H1E", 2.97],
  ["K16W", 2.78],
  ["T10H", 3.19],
  ["G11F", 2.72],
  ["R7N", 3.51],
  ["Q6I", 2.22],
  ["R4F", 2.38]
]}
